Target: integrin α4β1 (Homo sapiens, UniProt P05556+P13612)
Construct: cell strain Jurkat (ATCC TIB-152) of human T cells, known to express integrin α4β1; endogenous in cells
Sequence (P13612 34-1032): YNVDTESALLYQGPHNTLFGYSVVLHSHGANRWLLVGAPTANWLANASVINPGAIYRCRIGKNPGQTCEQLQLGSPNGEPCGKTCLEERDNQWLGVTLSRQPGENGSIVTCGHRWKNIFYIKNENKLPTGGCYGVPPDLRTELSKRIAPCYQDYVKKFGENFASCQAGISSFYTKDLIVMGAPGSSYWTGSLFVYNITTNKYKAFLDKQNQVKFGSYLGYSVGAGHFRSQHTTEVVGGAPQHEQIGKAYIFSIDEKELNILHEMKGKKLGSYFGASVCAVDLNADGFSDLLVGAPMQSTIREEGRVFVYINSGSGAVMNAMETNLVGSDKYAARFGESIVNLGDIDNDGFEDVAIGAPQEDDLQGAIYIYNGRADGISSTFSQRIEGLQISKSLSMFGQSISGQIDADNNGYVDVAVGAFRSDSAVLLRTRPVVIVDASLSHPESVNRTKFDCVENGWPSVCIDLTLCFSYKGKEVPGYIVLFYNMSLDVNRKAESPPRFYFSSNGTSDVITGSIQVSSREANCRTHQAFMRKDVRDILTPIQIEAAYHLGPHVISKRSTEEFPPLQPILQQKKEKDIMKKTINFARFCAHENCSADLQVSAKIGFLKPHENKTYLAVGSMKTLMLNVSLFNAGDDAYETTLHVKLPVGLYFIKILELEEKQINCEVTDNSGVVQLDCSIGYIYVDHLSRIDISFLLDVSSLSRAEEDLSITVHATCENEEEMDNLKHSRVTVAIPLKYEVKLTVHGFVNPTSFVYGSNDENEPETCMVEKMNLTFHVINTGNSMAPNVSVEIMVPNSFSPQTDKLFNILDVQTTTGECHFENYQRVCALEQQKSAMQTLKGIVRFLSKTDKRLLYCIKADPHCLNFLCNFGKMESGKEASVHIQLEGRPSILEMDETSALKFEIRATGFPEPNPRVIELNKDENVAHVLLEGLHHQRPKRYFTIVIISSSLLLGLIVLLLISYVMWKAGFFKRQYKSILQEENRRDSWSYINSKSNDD
Sequence (P05556 21-798): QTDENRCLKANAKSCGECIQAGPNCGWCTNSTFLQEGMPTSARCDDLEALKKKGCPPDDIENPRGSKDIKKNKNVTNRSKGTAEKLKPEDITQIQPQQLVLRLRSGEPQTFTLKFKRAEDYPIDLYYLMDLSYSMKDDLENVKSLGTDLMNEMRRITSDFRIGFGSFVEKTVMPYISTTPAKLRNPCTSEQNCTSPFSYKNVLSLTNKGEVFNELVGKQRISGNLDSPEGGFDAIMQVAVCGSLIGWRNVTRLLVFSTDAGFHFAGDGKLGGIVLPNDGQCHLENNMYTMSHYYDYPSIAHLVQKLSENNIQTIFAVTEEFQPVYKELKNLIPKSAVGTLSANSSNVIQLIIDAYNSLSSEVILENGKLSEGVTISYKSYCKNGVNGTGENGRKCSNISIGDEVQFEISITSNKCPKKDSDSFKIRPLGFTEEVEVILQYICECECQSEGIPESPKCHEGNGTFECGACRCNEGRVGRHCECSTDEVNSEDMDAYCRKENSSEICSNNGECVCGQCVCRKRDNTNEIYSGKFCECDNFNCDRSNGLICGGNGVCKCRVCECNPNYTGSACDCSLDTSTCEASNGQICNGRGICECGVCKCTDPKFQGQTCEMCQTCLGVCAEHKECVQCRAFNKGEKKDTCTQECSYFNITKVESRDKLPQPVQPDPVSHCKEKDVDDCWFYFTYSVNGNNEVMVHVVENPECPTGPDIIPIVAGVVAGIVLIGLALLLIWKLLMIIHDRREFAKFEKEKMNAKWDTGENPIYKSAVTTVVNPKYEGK
Assay: VCAM antagonist activity (VCAM-1/α4β1 binding assay), Jurkat cells binding to VCAM-1
Conditions: Jurkat cells binding to recombinant human VCAM-1, 30 minutes at room temperature; read-out: VCAM antagonistic activity IC50, α4β1
value kind: pIC50
Value format note: pIC50 is -log10 of concentration (mol/L); just state the number.

Past entries and their recorded results:
{"entry smiles": "CCCc1c(-c2ccc(C[C@H](NC(=O)c3c(Cl)cccc3Cl)C(=O)O)cc2)c(=O)n(C)c2ccccc12", "study target": "integrin α4β1 (Homo sapiens, UniProt P05556+P13612)", "pIC50": 7.43}
{"entry smiles": "CCOc1c(-c2ccc(C[C@H](NC(=O)c3c(Cl)cccc3Cl)C(=O)O)cc2)c(=O)n(C)c2ccccc12", "study target": "integrin α4β1 (Homo sapiens, UniProt P05556+P13612)", "pIC50": 7.13}
{"entry smiles": "Cn1c(=O)c(-c2ccc(C[C@H](NC(=O)c3c(Cl)cccc3Cl)C(=O)O)cc2)cc2cc([N+](C)(C)C)ccc21", "study target": "integrin α4β1 (Homo sapiens, UniProt P05556+P13612)", "pIC50": 6.82}
{"entry smiles": "Cc1c(-c2ccc(C[C@H](NC(=O)c3c(Cl)cccc3Cl)C(=O)O)cc2)c(=O)n(C)c2ccccc12", "study target": "integrin α4β1 (Homo sapiens, UniProt P05556+P13612)", "pIC50": 7.28}
{"entry smiles": "CCn1c(=O)c(-c2ccc(C[C@H](NC(=O)c3c(Cl)cccc3Cl)C(=O)O)cc2)c(C)c2ccccc21", "study target": "integrin α4β1 (Homo sapiens, UniProt P05556+P13612)", "pIC50": 6.75}

Result for Cn1c(=O)c(-c2ccc(C[C@H](NC(=O)c3c(Cl)cccc3Cl)C(=O)O)cc2)cc2cc(O)ccc21 , tested on integrin α4β1 (Homo sapiens, UniProt P05556+P13612), pIC50: 6.59

Result for CCCOc1c(-c2ccc(C[C@H](NC(=O)c3c(Cl)cccc3Cl)C(=O)O)cc2)c(=O)n(C)c2ccccc12 , tested on integrin α4β1 (Homo sapiens, UniProt P05556+P13612), pIC50: 6.94

---

Quick list: IC50 per entry.
Target: integrin α4β1 (Homo sapiens, UniProt P05556+P13612)
Construct: cell strain Jurkat (ATCC TIB-152) of human T cells, known to express integrin α4β1; endogenous in cells
Experiment: VCAM antagonist activity (VCAM-1/α4β1 binding assay), Jurkat cells binding to VCAM-1
Settings: Jurkat cells binding to recombinant human VCAM-1, 30 minutes at room temperature; read-out: VCAM antagonistic activity IC50, α4β1
Could you give me the number in nM? Just the number is fine.

Past entries and their recorded results:
{"entry smiles": "Cn1c(=O)c(-c2ccc(C[C@H](NC(=O)c3c(Cl)ccnc3Cl)C(=O)O)cc2)cc2ccccc21", "IC50 / nM": 290}
{"entry smiles": "Cn1c(=O)c(-c2ccc(C[C@H](NC(=O)c3c(Cl)cc(NS(C)(=O)=O)cc3Cl)C(=O)O)cc2)cc2ccccc21", "IC50 / nM": 47}
{"entry smiles": "CCC(CC)(C(=O)N[C@@H](Cc1ccc(-c2cc3ccccc3n(C)c2=O)cc1)C(=O)O)C(=O)N1CCCC1", "IC50 / nM": 320}

Okay, next one:
// IC50 lookup, compound = COc1c(-c2ccc(C[C@H](NC(=O)c3c(Cl)cccc3Cl)C(=O)O)cc2)c(=O)n(C)c2ccc(Cl)cc12 , result: 168
